From: patent US20160129089A1

- Tested on: human growth hormone receptor mRNA
- Test name: Inhibition of human growth hormone receptor mRNA levels by antisense oligonucleotides, quantitative real-time PCR, MCF7 cells
- Type: cell-based
- Parameters: concentration or dose not given beside the values
- Measurement conditions: averages from three experiments
e = 2'-O-(2-methoxyethyl) (MOE); d = 2'-deoxy (DNA)
Quantity kind: % INHIB (inhibitory effect on hGHR mRNA levels) (%)

Substance: 272329 (antisense ACTTTTTGGCATCTGCCTCA; sugars from the 5' end e5 d10 e5, all phosphorothioate, methylation of C not given here) [compound 272329]
Recorded measurement: 63

Substance: 272321 (antisense AACCCAAGAGTCATCACTGT; sugars from the 5' end e5 d10 e5, all phosphorothioate, methylation of C not given here) [compound 272321]
Recorded measurement: 64

Substance: 272342 (antisense TAGTGAGAAAGAAAGTTTCT; sugars from the 5' end e5 d10 e5, all phosphorothioate, methylation of C not given here) [compound 272342]
Recorded measurement: 45

---

- Tested on: human growth hormone receptor mRNA
- Test name: Inhibition of human growth hormone receptor mRNA levels by antisense oligonucleotides, quantitative real-time PCR, MCF7 cells
- Assay type: cell-based
- Parameters: concentration or dose not given beside the values
- Measurement conditions: averages from three experiments
e = 2'-O-(2-methoxyethyl) (MOE); d = 2'-deoxy (DNA)
Give class 1 when the value for % INHIB (inhibitory effect on hGHR mRNA levels) is at least 50%. Give class 0 when it is less.

Substance: 272343 (antisense AATGCTCTCAAGAATGATGT; sugars from the 5' end e5 d10 e5, all phosphorothioate, methylation of C not given here) [compound 272343]
Cat: class 0
//
Substance: 272331 (antisense CAGTCGCATTGAGTATGAGG; sugars from the 5' end e5 d10 e5, all phosphorothioate, methylation of C not given here) [compound 272331]
Cat: class 1
//
Substance: 227453 (antisense CATAATCAGGGCATTCTTTC; sugars from the 5' end e5 d10 e5, all phosphorothioate, methylation of C not given here) [compound 227453]
Cat: class 1
//
Substance: 272345 (antisense CATCTATTACAAATAACATG; sugars from the 5' end e5 d10 e5, all phosphorothioate, methylation of C not given here) [compound 272345]
Cat: class 0
//
Substance: 272305 (antisense TTGTCTTTAGGCCTGGATTA; sugars from the 5' end e5 d10 e5, all phosphorothioate, methylation of C not given here) [compound 272305]
Cat: class 1

---

- Test system: human growth hormone receptor mRNA
- Test name: Inhibition of human growth hormone receptor mRNA levels by antisense oligonucleotides, quantitative real-time PCR, MCF7 cells
- Format: cell-based
- Set-up: concentration or dose not given beside the values
- Measurement conditions: averages from three experiments
e = 2'-O-(2-methoxyethyl) (MOE); d = 2'-deoxy (DNA)
Label y when % INHIB (inhibitory effect on hGHR mRNA levels) >= 60%; otherwise n.

Substance: 272311 (antisense TTGCACTATTTCATCAACAG; sugars from the 5' end e5 d10 e5, all phosphorothioate, methylation of C not given here) [compound 272311]
Cat: n
//
Substance: 227468 (antisense TCATCAATATCTAGCTCAAT; sugars from the 5' end e5 d10 e5, all phosphorothioate, methylation of C not given here) [compound 227468]
Cat: y
//
Substance: 272314 (antisense TAGGGTCCATCATTTTCCAT; sugars from the 5' end e5 d10 e5, all phosphorothioate, methylation of C not given here) [compound 272314]
Cat: n
//
Substance: 272307 (antisense GTGAATTTAGGCTCCTTAGA; sugars from the 5' end e5 d10 e5, all phosphorothioate, methylation of C not given here) [compound 272307]
Cat: n
//
Substance: 272359 (antisense TCCAAATATTCTGGTACTTT; sugars from the 5' end e5 d10 e5, all phosphorothioate, methylation of C not given here) [compound 272359]
Cat: y
//
Substance: 272317 (antisense AGCCCAAATATTCCAAAGAT; sugars from the 5' end e5 d10 e5, all phosphorothioate, methylation of C not given here) [compound 272317]
Cat: y
//
Substance: 227469 (antisense CTTAGAAGTCTGTCTGTGTC; sugars from the 5' end e5 d10 e5, all phosphorothioate, methylation of C not given here) [compound 227469]
Cat: y
//
Substance: 272306 (antisense TTAGAAGAATTTGTCTTTAG; sugars from the 5' end e5 d10 e5, all phosphorothioate, methylation of C not given here) [compound 272306]
Cat: n
//
Substance: 272340 (antisense CATCAACCAAGATTTGGTGA; sugars from the 5' end e5 d10 e5, all phosphorothioate, methylation of C not given here) [compound 272340]
Cat: y
